# assay-target: T1, PhoEF1A I328S•GTP•PfuPelota complex (Pyrococcus horikoshii | Pyrococcus …, UniProt O59153 1-428, I328S)
# T1 construct: elongation factor aEF1A of Pyrococcus horikoshii (PhoEF1A); complex of the EF1A mutant, GTP and PfuPelota; also called I328(F331)S; P. horikoshii aEF1A-I328S
# T1 sequence 1: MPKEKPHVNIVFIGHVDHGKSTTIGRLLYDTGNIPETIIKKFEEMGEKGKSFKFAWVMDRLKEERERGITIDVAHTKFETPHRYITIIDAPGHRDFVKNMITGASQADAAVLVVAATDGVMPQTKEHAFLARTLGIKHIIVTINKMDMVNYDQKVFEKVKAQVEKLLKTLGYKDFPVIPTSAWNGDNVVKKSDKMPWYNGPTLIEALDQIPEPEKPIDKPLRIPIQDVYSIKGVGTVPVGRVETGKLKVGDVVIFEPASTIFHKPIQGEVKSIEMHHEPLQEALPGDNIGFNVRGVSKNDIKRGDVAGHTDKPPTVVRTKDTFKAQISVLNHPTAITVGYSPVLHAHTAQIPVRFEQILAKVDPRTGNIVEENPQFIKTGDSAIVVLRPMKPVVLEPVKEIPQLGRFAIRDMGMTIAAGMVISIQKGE
# T1 sequence 2: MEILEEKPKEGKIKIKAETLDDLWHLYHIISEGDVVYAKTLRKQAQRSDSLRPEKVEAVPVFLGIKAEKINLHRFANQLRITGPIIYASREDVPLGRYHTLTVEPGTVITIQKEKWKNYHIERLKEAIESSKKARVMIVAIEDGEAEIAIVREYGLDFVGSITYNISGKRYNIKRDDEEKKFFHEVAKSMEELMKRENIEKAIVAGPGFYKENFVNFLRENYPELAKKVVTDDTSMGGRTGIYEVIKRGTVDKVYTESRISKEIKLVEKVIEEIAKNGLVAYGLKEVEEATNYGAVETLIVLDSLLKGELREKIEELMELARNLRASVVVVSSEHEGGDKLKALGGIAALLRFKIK
# protocol-description: fluorescence polarisation; FITC-labeled PhoP1C14 peptide (50 nM) mixed with 0-160 µM of the complex of each PhoEF1A mutant, GTP and PfuPelota; 20 mM HEPES-KOH pH 7.6, 10 mM MgCl2, 150 mM KCl, 0.1 mg/ml BSA; 25 °C; nonlinear regression, one site specific binding (GraphPad Prism 6); average of three replicates
# condition-details: both partners purified
Primed or numbered codes have the meaning given here. Where no end group is shown, it is not given here. FITC′ = fluorescein isothiocyanate label
endpoint-label: pKd
// pKd is dimensionless: -log10 of concentration (M)

Incoming: Quote pKd reported for {FITC′}-SEEEALAGLSALFG (also called FITC-labeled peptide of PhoP1C14; source: synthetic peptide (Hokkaido System Science Co., Ltd)) [FITC-labeled C-terminal 14-mer peptide of P. horikoshii aP1 (PhoP1C14)] please.
Outgoing: 4.03
